Each record here notes measured IC50.
# TARGET OR SYSTEM: A*6801 (Homo sapiens, UniProt P04439, A269V/D185E/E176V/E277Q/E87N/F33Y/G231S/I121M/I166T/I218V/L180W/L300P/L318F/N151K/P208A/P217A/Q86R/R169H/T345S)
# PROTOCOL DETAILS: biochemical
# Format: binding
No end group written: not given here.
Report the figure in nM without appending any unit label.

- SEQUENCE STRING: "TQQMLQVEGR [Peptide 88.0128]"
  NUMBER: 739
- SEQUENCE STRING: "LLLIRFRCSK [Peptide 88.0164]"
  NUMBER: 732
- SEQUENCE STRING: "MVVLLLVRYK [Peptide 1587.04]"
  NUMBER: 720
- SEQUENCE STRING: "QTCALYWFR [Peptide 88.0361]"
  NUMBER: 18
- SEQUENCE STRING: "MALESILRK [Peptide 9012.0214]"
  NUMBER: 433

sequence TFWNPPTTAR [Peptide 1556.02] , IC50 observed: 29

sequence MQYVAWKYIY [Peptide 88.0233] , IC50 observed: 12100

sequence GVRRATTSTK [Peptide 88.0210] , IC50 observed: 18300

* * *

Each record here notes measured pIC50.
# TARGET OR SYSTEM: HLA-A3.2 (A*0301) (Homo sapiens, UniProt P04439)
# PROTOCOL DETAILS: biochemical
# Format: binding
No end group written: not given here.
In textbook form, pIC50 equals minus log to base ten of the concentration in mol/L.

Sample answers from the record:
- SEQUENCE STRING: "ALTALIKPK [Peptide 9017.0098]"
  NUMBER: 7.62
- SEQUENCE STRING: "SQACALYWFR [Peptide 88.0192]"
  NUMBER: 5.33
- SEQUENCE STRING: "TIVYIEYRK [Peptide 9017.0118]"
  NUMBER: 5.05
- SEQUENCE STRING: "LTALITPKK [Peptide 9017.0101]"
  NUMBER: 7.39
- SEQUENCE STRING: "GTAKSVTCTR [Peptide 1556.31]"
  NUMBER: 6.02

sequence NTKATLLYK [Peptide 88.0385] , pIC50 observed: 6.40

sequence LQLALEALNK [Peptide 88.0227] , pIC50 observed: 5.96

sequence RLECVLMYK [Peptide 1589.12] , pIC50 observed: 8.06

sequence NSNAAAFLK [Peptide 88.0342] , pIC50 observed: 6.02

sequence AQIEHWKLTR [Peptide 88.0226] , pIC50 observed: 5.68

sequence MLIRYTCGK [Peptide 88.0377] , pIC50 observed: 7.47

sequence HLFGYSYYK [Peptide 76.0191] , pIC50 observed: 7.96

sequence ISYGRKKRR [Peptide 9017.0079] , pIC50 observed: 5.03

sequence STWHWTGCNK [Peptide 1589.28] , pIC50 observed: 7.14

sequence AIVVWTIAY [Peptide 9017.0115] , pIC50 observed: 6.92

* * *

# TARGET OR SYSTEM: A*0203 (Homo sapiens, UniProt P04439, A173T/D140Y/D185E/D98H/E277Q/G131W/G231S/I119V/I121R/I166T/I218V/L180W/L300P/L318F/N151K/N90K/P208A/P217A/Q86G/Q94H/R138H/R169H/T345S)
# PROTOCOL DETAILS: biochemical
# Assay type: binding
No end group written: not given here.
READOUT KIND: IC50 (nM)
Report the figure in nM without appending any unit label.

Sample answers from the record:
- SEQUENCE STRING: "RILQQLLFA [Peptide 1525.14]"
  READOUT KIND: "IC50"
  NUMBER: 68
- SEQUENCE STRING: "TLQDVSLEV [Peptide 1578.45]"
  READOUT KIND: "IC50"
  NUMBER: 26

sequence LTFWNPPTV [Peptide 9013.0006] , IC50 observed: 2.3

# credit: patent US9340577B2
